Data origin, for the record: patent US20240018153A1

remaining activity at 1 µM values for the compounds below.
# system under test: RIPK2 (Homo sapiens (Human), UniProt O43353)
# Sequence (O43353 whole entry, species assumed): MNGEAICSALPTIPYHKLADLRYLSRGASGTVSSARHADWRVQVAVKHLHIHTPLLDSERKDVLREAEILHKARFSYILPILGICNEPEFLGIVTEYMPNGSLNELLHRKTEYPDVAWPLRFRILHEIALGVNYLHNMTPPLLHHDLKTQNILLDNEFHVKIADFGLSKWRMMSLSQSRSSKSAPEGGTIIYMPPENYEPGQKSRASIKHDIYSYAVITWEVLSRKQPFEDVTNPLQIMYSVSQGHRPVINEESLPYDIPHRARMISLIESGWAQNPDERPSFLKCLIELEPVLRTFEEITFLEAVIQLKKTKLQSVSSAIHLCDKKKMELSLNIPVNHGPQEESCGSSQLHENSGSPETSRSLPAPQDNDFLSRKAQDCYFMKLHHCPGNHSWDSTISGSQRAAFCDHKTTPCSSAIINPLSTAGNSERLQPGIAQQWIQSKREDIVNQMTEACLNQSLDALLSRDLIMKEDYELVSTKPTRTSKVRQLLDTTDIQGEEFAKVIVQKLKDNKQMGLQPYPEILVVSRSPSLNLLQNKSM
# assay: In vitro RIPK2 inhibition
# Format: biochemical
# condition set: read-out: % RIPK2 Remaining activity vs DMSO (1 μM, 3 h)

compound	remaining activity at 1 µM
Nc1ncnc2c1c(-c1ccc(Oc3ccccc3)cc1)nn2CCCNC(=O)c1c(F)c(F)c(F)c(F)c1S(N)(=O)=O	> 90%
CN(C)S(=O)(=O)c1c(F)c(F)c(F)c(F)c1C(=O)N1CCC[C@@H](n2nc(-c3ccc(Oc4ccccc4)cc3)c3c(N)ncnc32)C1	50 to 90%
CS(=O)(=O)c1c(F)c(F)c(F)c(F)c1C(=O)NCCn1nc(-c2ccc(Oc3ccccc3)cc2)c2c(N)ncnc21	> 90%
CN(CCn1nc(-c2ccc(Oc3ccccc3)cc2)c2c(N)ncnc21)C(=O)c1c(F)c(F)c(F)c(F)c1S(=O)(=O)N(C)C	50 to 90%
C[S@+]([O-])c1c(F)c(F)c(F)c(F)c1C(=O)Nc1ncnc2[nH]ccc12 (racemic)	< 50%
C[S@+]([O-])c1c(F)c(F)c(F)c(F)c1C(=O)N1CC(n2nc(-c3ccc(Oc4ccccc4)cc3)c3c(N)ncnc32)C1 (racemic)	50 to 90%
CS(=O)(=O)c1c(F)c(F)c(F)c(F)c1C(=O)NCCNc1ncnc2[nH]ccc12	< 50%
CS(=O)(=O)c1c(F)c(F)c(F)c(F)c1C(=O)NCCCn1nc(-c2ccc(Oc3ccccc3)cc2)c2c(N)ncnc21	> 90%

---

# system under test: JAK3 (Homo sapiens (Human), UniProt P52333)
# Sequence (P52333 781-1124): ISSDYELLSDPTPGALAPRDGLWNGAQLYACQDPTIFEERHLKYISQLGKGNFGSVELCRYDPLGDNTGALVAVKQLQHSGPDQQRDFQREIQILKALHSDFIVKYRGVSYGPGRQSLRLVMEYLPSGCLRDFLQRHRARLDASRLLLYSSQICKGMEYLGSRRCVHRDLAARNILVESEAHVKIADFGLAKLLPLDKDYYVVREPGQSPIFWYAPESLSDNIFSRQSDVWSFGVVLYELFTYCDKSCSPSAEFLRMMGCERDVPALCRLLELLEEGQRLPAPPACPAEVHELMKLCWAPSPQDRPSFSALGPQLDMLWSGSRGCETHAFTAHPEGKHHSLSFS
# assay: HTRF KinEASE-TK kinase assay, JAK3
# Type: biochemical
# condition set: read-out: % JAK3 Remaining activity vs DMSO (10 μM, 3 h)
# Description: Kinase activity was monitored using a HTRF® KinEASE-TK kit from Cisbio (62TK0PEC). […] JAK-3 was purchased from Promega. 0.0133 ng/ul JAK3 (0.21 nM) was preincubated in the absence or presence of inhibitor at room temperature for 3 hours. Reaction with substrate was then initiated by adding biotinylated substrate and ATP. […] After 60 min of incubation, the fluorescence emission was measured at 620 nm and 665 nm. […]
remaining activity at 10 µM values for the compounds below.
measurement name: remaining activity at 10 µM

compound	system under test	result
C[S+]([O-])c1c(F)c(F)c(F)c(F)c1Nc1cc2c(Nc3ccc(F)c(Cl)c3)ncnc2cc1O[C@H]1CCOC1 (stereo partly shown)	JAK3 (Homo sapiens (Human), UniProt P52333)	> 90%
Nc1ncnc2c1c(-c1ccc(Oc3ccccc3)cc1)nn2[C@@H]1CCN(S(=O)(=O)c2c(F)c(F)c(F)c(F)c2OCF)C1	JAK3 (Homo sapiens (Human), UniProt P52333)	50 to 90%
COCCOc1ccc(Nc2ncc(F)c(Nc3cccc(NC(=O)c4c(F)c(F)c(F)c(F)c4S(=O)(=O)N(C)C)c3)n2)cc1	JAK3 (Homo sapiens (Human), UniProt P52333)	50 to 90%
CN(CCn1nc(-c2ccc(Oc3ccccc3)cc2)c2c(N)ncnc21)C(=O)c1c(F)c(F)c(F)c(F)c1S(C)(=O)=O	JAK3 (Homo sapiens (Human), UniProt P52333)	< 50%
Nc1ncnc2c1c(-c1ccc(Oc3ccccc3)cc1)nn2CCNC(=O)c1c(F)c(F)c(F)c(F)c1S(N)(=O)=O	JAK3 (Homo sapiens (Human), UniProt P52333)	50 to 90%
CS(=O)(=O)c1c(F)c(F)c(F)c(F)c1Nc1cc2c(Nc3ccc(F)c(Cl)c3)ncnc2cc1O[C@H]1CCOC1	JAK3 (Homo sapiens (Human), UniProt P52333)	< 50%
Nc1ncnc2c1c(-c1ccc(Oc3ccccc3)cc1)nn2CCNS(=O)(=O)c1c(F)c(F)c(F)c(F)c1C(F)F	JAK3 (Homo sapiens (Human), UniProt P52333)	50 to 90%
CS(=O)(=O)c1c(F)c(F)c(F)c(F)c1C(=O)NCCn1nc(-c2ccc(Oc3ccccc3)cc2)c2c(N)ncnc21	JAK3 (Homo sapiens (Human), UniProt P52333)	< 50%
CN(C)S(=O)(=O)c1c(F)c(F)c(F)c(F)c1C(=O)N1CC(n2nc(-c3ccc(Oc4ccccc4)cc3)c3c(N)ncnc32)C1	JAK3 (Homo sapiens (Human), UniProt P52333)	< 50%
COCCOc1ccc(Nc2ncc(F)c(Nc3cccc(Nc4c(F)c(F)c(F)c(F)c4[S@+](C)[O-])c3)n2)cc1 (stereo in doubt)	JAK3 (Homo sapiens (Human), UniProt P52333)	50 to 90%
C[S@+]([O-])c1c(F)c(F)c(F)c(F)c1C(=O)Nc1ncnc2[nH]ccc12 (racemic)	JAK3 (Homo sapiens (Human), UniProt P52333)	> 90%
COCCOc1ccc(Nc2ncc(F)c(NCCCNS(=O)(=O)c3c(F)c(F)c(F)c(F)c3OC(F)F)n2)cc1	JAK3 (Homo sapiens (Human), UniProt P52333)	< 50%
CS(=O)(=O)c1c(F)c(F)c(F)c(F)c1C(=O)NCCCn1nc(-c2ccc(Oc3ccccc3)cc2)c2c(N)ncnc21	JAK3 (Homo sapiens (Human), UniProt P52333)	< 50%
